- assay remarks: growth inhibition of non-replicating M. tuberculosis (AID 488890);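 note: plate controls were DMSO cells for no effect and high antibiotic wells for full effect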
- condition parameters: Mycobacterium tuberculosis non-replicating, at 25 µM, stronger effect = higher value
In all, about 320,000 compounds went through this assay and about 1,300 (0.41%) were called active. Inconclusive results (about 3%) are left out. The list is a sample of the results. Potency and affinity values are given separately.
readout label: inhibition (%)
State just the number; it will be interpreted in %.

// sample "Cc1cc2c(cc1C)N(C(=O)CSC1=NCCS1)C(C)(C)c1ssc(=S)c1-2" , its inhibition was 27.9

// sample "O=[N+]([O-])c1ccccc1-c1ccc(CN2CCN(c3ccccc3)CC2)o1" , its inhibition was 36.3

// sample "O=[N+]([O-])c1ccc(N2CCN(Cc3ccc(Br)o3)CC2)cc1" , its inhibition was 78.8

// sample "O=[N+]([O-])c1ccc(N2CCN(c3ccc(F)cc3)CC2)cc1" , its inhibition was 24.2

// sample "NC(=O)C1CCN(C(=S)c2ccc(-c3ccc(Br)cc3)o2)CC1" , its inhibition was 76.2

// sample "CN1CCN(c2ccc(NC(=O)c3ccc(Br)o3)cc2)CC1" , its inhibition was -1.79

// sample "CCN1CCN(c2ccc(S(=O)(=O)N3CCOCC3)cc2NC(=O)c2sccc2C)CC1" , its inhibition was -12.4

// sample "Clc1ccc(N2CCN(Cc3ccco3)CC2)cc1" , its inhibition was 69.8

// sample Cc1cccc2nc(CNC(=O)C3CCC(=O)N(Cc4ccccc4F)C3)cn12 (stereo not drawn) , its inhibition was -13.7

// sample "Clc1ccc(N2CCN(Cc3ccc(Br)o3)CC2)cc1" , its inhibition was 75.9

// sample "C/C(CC(=O)NC1CCCCC1)=N\NC(=O)Cc1ccc(-c2ccccc2)cc1" , its inhibition was 9.13

// sample "Cc1ccc(-n2cc3c(=O)n(C)c(=O)n(C)c3c2)cc1C" , its inhibition was 13.7

// sample "Cc1cc(C)c[n+](CC(=O)c2ccc(C)c([N+](=O)[O-])c2)c1" , its inhibition was 11.3

// sample "Cc1cc(C(=O)CCC(=O)Nc2ncccc2C)c(C)s1" , its inhibition was 25.8

// sample "CS(=O)(=O)N1CCN(c2ccc(NC(=O)c3ccc(-c4ccc(Cl)cc4)o3)cc2)CC1" , its inhibition was -19.8

// sample "O=C(N/N=C/c1ccc2nccnc2c1)c1cccc([N+](=O)[O-])c1" , its inhibition was -21.3

// sample CCOC(=O)C1C(=O)CC(=O)CC1CC(C)SCC (stereo not drawn) , its inhibition was -2.43

// sample "COc1ccc(NC(=O)COc2nc(N(C)C)nc(N(C)C)n2)cc1" , its inhibition was -4.63

// sample CSCCC(NC(=O)c1ccco1)C(=O)N1CCC(C(N)=O)CC1 (stereo not drawn) , its inhibition was -11.5

// sample "O=C(CN1CCCCCC1)Nc1cc(C(F)(F)F)ccc1Cl" , its inhibition was 1.63

// sample "O=C(N/N=C/c1ccccn1)c1ccc([N+](=O)[O-])cc1Cl" , its inhibition was 74.4

// sample "CCOC(=O)c1c(C)[nH]c(C=O)c1Cc1cccc(Cl)c1" , its inhibition was 22.5

// sample "CN1CCN(c2ccccc2NC(=O)c2ccc(-c3ccc(Br)cc3)o2)CC1" , its inhibition was 7.26
